Biological target: hα1A adrenergic receptor (Homo sapiens, UniProt P35348)
Sequence (P35348 whole entry): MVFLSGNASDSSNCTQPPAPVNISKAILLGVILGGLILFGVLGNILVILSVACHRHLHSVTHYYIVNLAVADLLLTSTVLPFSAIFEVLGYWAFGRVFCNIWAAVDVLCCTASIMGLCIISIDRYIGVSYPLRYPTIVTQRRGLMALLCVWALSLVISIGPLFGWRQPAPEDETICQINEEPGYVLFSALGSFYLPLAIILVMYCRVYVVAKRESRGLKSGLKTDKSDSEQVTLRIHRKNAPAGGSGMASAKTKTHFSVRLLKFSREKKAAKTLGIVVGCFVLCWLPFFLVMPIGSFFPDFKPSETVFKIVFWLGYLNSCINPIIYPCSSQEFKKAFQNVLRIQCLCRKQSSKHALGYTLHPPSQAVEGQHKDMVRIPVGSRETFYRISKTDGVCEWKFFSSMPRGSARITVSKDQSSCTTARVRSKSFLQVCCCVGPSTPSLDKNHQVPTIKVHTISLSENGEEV
Test: Radioligand binding, α1A adrenergic receptor ([3H]prazosin)
Conditions: hα1A Ki ± SD
OBSERVED_PROPERTY: Ki (nM)
Return type: number; implicit unit nM.

COc1cc(OC(F)F)cc(OC)c1CCN
2100
C=C(C)COc1cc(OC)c(CC(C)N)c(OC)c1 (stereo not shown)
2200

Consider the compound COc1cc(OCc2ccccc2)cc(OC)c1CC(C)N (stereo not shown) and give its recorded Ki.
5800

====

Molecular target: UniProt P28223
Sequence (P28223 whole entry): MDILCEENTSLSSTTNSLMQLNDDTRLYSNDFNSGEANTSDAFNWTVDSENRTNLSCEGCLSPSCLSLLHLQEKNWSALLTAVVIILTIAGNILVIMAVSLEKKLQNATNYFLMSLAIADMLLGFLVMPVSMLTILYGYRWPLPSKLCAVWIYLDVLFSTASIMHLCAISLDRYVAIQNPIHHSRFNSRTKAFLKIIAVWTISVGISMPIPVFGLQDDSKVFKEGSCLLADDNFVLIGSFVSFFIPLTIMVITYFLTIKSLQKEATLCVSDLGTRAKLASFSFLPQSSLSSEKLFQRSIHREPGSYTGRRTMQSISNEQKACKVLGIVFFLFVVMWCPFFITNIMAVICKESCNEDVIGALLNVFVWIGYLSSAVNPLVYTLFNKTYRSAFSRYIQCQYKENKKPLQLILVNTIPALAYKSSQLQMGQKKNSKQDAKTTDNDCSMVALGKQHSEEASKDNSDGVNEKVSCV
Assay: Radioligand binding, 5-HT2A receptor ([3H]ketanserin)
Details: preference for 5-HT2A (Ki 5-HT2C divided by Ki 5-HT2A)
OBSERVED_PROPERTY: Selectivity (binding ratio) 5-HT2A/5-HT2C
Format: numeric value only, no unit, no commentary.

COc1cc(OC(F)F)cc(OC)c1CC(C)N (centres unmarked) [Ψ-DODFMO]
21
COc1cc(OCC(F)F)cc(OC)c1CCN [Ψ-2C-O-21.5]
1.8
COc1cc(OC)c(CCN)c(OC)c1 [Ψ-2C-O-1, 2,4,6-trimethoxyphenethylamine]
4
C=C(C)COc1cc(OC)c(CC(C)N)c(OC)c1 (centres unmarked) [Ψ-MMALM, 2,6-dimethoxy-4-methallyloxyamphetamine]
5.6

Return reported Selectivity (binding ratio) 5-HT2A/5-HT2C. Input molecule: COc1cc(OC)c(CC(C)N)c(OC)c1 (centres unmarked) [TMA-6, 2,4,6-trimethoxyamphetamine]
6.7

For the molecule C=C(C)COc1cc(OC)c(CCN)c(OC)c1 [Ψ-2C-O-3] , give its reported Selectivity (binding ratio) 5-HT2A/5-HT2C.
6.6

Query Selectivity (binding ratio) 5-HT2A/5-HT2C for CCOc1cc(OC)c(CCN)c(OC)c1 [Ψ-2C-O-2, 2,6-dimethoxy-4-ethoxyphenethylamine]
3.8

Give Selectivity (binding ratio) 5-HT2A/5-HT2C for the following molecule: CCOc1cc(OC)c(CC(C)N)c(OC)c1 (centres unmarked) [Ψ-MEM, 2,6-dimethoxy-4-ethoxyamphetamine]
10

====

Target: UniProt P08908
Sequence (P08908 1-422): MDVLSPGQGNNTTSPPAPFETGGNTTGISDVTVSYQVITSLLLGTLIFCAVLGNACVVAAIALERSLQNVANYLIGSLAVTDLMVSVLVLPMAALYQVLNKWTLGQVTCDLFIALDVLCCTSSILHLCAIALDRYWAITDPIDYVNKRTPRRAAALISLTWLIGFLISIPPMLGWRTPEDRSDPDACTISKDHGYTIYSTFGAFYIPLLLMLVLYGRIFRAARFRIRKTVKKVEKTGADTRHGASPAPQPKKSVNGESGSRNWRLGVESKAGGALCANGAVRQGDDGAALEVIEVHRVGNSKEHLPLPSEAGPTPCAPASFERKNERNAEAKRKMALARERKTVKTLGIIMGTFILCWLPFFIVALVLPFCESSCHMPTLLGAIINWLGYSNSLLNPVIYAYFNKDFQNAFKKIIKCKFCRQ
OBSERVED_PROPERTY: pKi
Answer as the number alone; pKi is minus log10 of concentration in mol/L.

C=C(C)COc1cc(OC)c(CCN)c(OC)c1
6.00

In the following, a different molecule is considered.
Consider the molecule `COc1cc(OCC(F)F)cc(OC)c1CCN` tested on UniProt P08908; state its pKi.
5.89
